B1: POU domain, class 4, transcription factor 1, residues 266 to 347; numbered along this chain, Q01851 (parent)
chain: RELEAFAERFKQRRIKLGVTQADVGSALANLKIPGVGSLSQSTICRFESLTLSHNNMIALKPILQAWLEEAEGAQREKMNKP

Variants of: B1
Test: abundance fitness (aPCA) (normalised: wild type 0, dead -1); higher = more abundant; growth selection in yeast, the domain comes from the species named
Conditions: Homo sapiens
Threshold rule: abundance fitness greater than or equal to -0.09 is t; below that, f.

Illustrative cases are given below, each with its answer.
{"variant_designation": "G25C", "class_label": "t"}
{"variant_designation": "E4P", "class_label": "f"}
{"variant_designation": "L39Y", "class_label": "f"}
{"variant_designation": "K61I", "class_label": "t"}
{"variant_designation": "R1G", "class_label": "t"}

Could you verify whether the entry "W67G" shows abundance fitness of no less than -0.09?
f

Consider next the variant "N80K" in the same way.
t

Consider next the variant "S40W" in the same way.
f

Consider next the variant "G35S" in the same way.
f

Consider next the variant "A74K" in the same way.
t

Consider next the variant "S53C" in the same way.
t

Consider next the variant "G73Q" in the same way.
t

Consider next the variant "I15V" in the same way.
t

Consider next the variant "S53P" in the same way.
t

Consider next the variant "E48P" in the same way.
f

Consider next the variant "N56A" in the same way.
t

Consider next the variant "A74W" in the same way.
f

Consider next the variant "A29G" in the same way.
t

Consider next the variant "F10A" in the same way.
f

Consider next the variant "K81D" in the same way.
t

Consider next the variant "K61S" in the same way.
f
